# TARGET OR SYSTEM: PfFNT (Plasmodium falciparum, UniProt O77389)
# Sequence (O77389 whole entry): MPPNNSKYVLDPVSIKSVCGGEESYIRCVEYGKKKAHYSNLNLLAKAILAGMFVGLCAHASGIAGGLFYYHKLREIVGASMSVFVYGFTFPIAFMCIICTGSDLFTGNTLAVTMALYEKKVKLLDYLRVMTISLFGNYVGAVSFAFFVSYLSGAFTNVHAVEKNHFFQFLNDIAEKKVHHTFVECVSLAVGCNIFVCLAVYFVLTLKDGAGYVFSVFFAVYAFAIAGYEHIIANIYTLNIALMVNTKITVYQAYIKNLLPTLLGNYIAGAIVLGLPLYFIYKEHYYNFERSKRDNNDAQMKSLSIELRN
QUANTITY: pKi
The value called pKi is obtained by taking minus log10 of the concentration in mol/L.

Lookup: Find the measured pKi of COc1ccc2c(c1)OC(O)(C(F)(F)C(F)(F)F)CC2=O (stereo not shown) [MMV007839] and report it.
Found: 5.85

----------
# IC50 per record follows
# System: MMV007839 resistant 3D7 parasites
# ASSAY EXPLANATION: microbe, parasite or virus in culture
# Type: cell-based, Plasmodium falciparum
# CONDITION NOTES: Plasmodium falciparum, 3D7, read-out: IC50 (P. falciparum resist.)
Give the number; µM is assumed, so skip it.

- COMPOUND: "COc1ccc2c(c1)OC(O)(C(F)(F)C(F)(F)F)CC2=O (centres unmarked)"
  TARGET OR SYSTEM: "MMV007839 resistant 3D7 parasites"
  IC50, µM: 35

Now consider the entry below.
Lookup: Find the measured IC50 of COc1ccc(C(=O)/C=C(\O)C(F)(F)C(F)(F)F)cc1 and report it.
Found: 8.6
